Test system: Rattus norvegicus
Test: Toxicity in CFY Sprague-Dawley rat assessed as body weight gain at 0.2% dietary level administered for 7 days relative to control
Assay type: organism-based
Details: in vivo, po, 168 h
endpoint: Activity (%)
Could you give me the number in %? Just the number is fine.

These solved cases illustrate the format of a correct answer.
structure_smiles	Activity [%]
O=C(O)c1ccc(OCc2ccccc2)cc1	-13
CCOC(=O)c1ccc(OCc2ccc(C)cc2)cc1	14
CCOC(=O)Cc1ccc(OCc2ccccc2OC)cc1	6
CCOC(=O)c1ccc(OCc2ccccc2)cc1	-8

stdin: Specify measured Activity for CCOC(=O)c1ccc(OCc2ccc(Br)cc2)cc1 .
stdout: 17

====

Test system: Rattus norvegicus
Assay: Toxicity in CFY Sprague-Dawley rat assessed as relative liver weight at 1% dietary level administered for 7 days relative to control
Type: organism-based
Conditions: in vivo, po, 168 h
endpoint: Activity (%)
Could you give me the number in %? Just the number is fine.

These solved cases illustrate the format of a correct answer.
structure_smiles	endpoint	result_value
CCOC(=O)c1ccc(OCc2ccccc2)cc1	Activity	37
CCOC(=O)c1ccc(OCc2ccc(C)cc2)cc1	Activity	19
O=C(O)c1ccc(OCc2ccccc2)cc1	Activity	50
CCOC(=O)Cc1ccc(OCc2ccccc2OC)cc1	Activity	19

Then this compound:
stdin: Specify measured Activity for CCOC(=O)c1ccc(OCc2ccc(Br)cc2)cc1 .
stdout: 20

====

Test system: Rattus norvegicus
Assay: Toxicity in CFY Sprague-Dawley rat assessed as relative liver weight at 0.25% dietary level administered for 7 days relative to control
Assay type: organism-based
Conditions: in vivo, po, 168 h
The label depends only on Activity: TRUE if it is at least 10%, FALSE if it is smaller.

Study these solved cases before continuing.
structure_smiles	discrete_label
CCOC(=O)c1ccc(OCc2ccccc2[N+](=O)[O-])cc1	TRUE
CCOC(=O)Cc1ccc(OCc2ccc(C)cc2)cc1	TRUE
CCOC(=O)c1ccc(OCc2cccc(C(F)(F)F)c2)cc1	FALSE
CCOC(=O)CCc1ccc(OCc2cccc(F)c2)cc1	FALSE
CCOC(=O)c1ccc(OCc2cccc(F)c2)cc1	FALSE

Consider the additional molecule presented here.
stdin: Please check the record Cc1ccc(OCc2ccccc2)cc1C and state if its Activity is at or above 10%.
stdout: TRUE

====

Tested on: Rattus norvegicus
Assay: Toxicity in CFY Sprague-Dawley rat assessed as body weight gain at 0.25% dietary level administered for 7 days relative to control
Assay type: organism-based
Settings: in vivo, po, 168 h
endpoint: Activity (%)
Could you give me the number in %? Just the number is fine.

These solved cases illustrate the format of a correct answer.
structure_smiles	Activity [%]
CCOC(=O)c1ccc(OCc2ccc([N+](=O)[O-])cc2)cc1	-15
N#Cc1ccc(OCc2ccc(F)cc2)cc1	6
CCOC(=O)c1ccc(OCc2cccc(F)c2)cc1	-1
CCOC(=O)c1cccc(OCc2ccccc2)c1	4
CCOC(=O)c1ccc(OCc2cccc(C(F)(F)F)c2)cc1	12

Then this compound:
stdin: Report value only: Activity, Rattus norvegicus, CCOC(=O)c1ccc(COc2ccc(Br)cc2)cc1
stdout: 3

These data points were gathered from ChEMBL document CHEMBL3272121.
